# system_name: SpBzz1-D2
# experimental_protocol: SPOT peptide array binding signal intensity (averaged, normalized) (arbitrary units (background-subtracted, floor 0; scale differs between SH3 domains)); higher = stronger binding of the SH3 domain to the peptide
SPOT peptide array binding signal intensity by entry:
measurement_type: SPOT peptide array binding signal intensity

| binder | inequality_symbol | numeric_value |
| --- | --- | --- |
| QLLNPNRRAPRRPLS | = | 130 |
| GERSRPLVISILSSA | = | 0.75 |
| GTIARPLFLVVLFFI | ≤ | 0 |
| DGNEEKPLLPTRPNK | ≤ | 0 |
| RRTRLRPPTPLSQLL | ≤ | 0 |
| LYEAMPPTLPHRDWK | = | 0.5 |
| STPQTMRQAPKRPDA | = | 11 |
| SHRLWLYAAPKRPKT | = | 0.5 |
| TYNRTAFQIPGDQSI | ≤ | 0 |
| VQKRKLPLPGSIASA | ≤ | 0 |
| QQEQNTPPLPPKPKS | ≤ | 0 |
| RVTRKRPREPKSTND | ≤ | 0 |
| NNQRRKPLLLNIGDH | ≤ | 0 |
| PSTMDFPKLPSFQNS | = | 10.5 |
| AAHKTKPSIPPKKVE | ≤ | 0 |

Values were extracted from the supplement of paper PMC4466140.
